Kindly state composite z-score for each of the entries shown.
target: Focal adhesion kinase 1 (Homo sapiens) (UniProt Q05397); assay: small-molecule microarray binders of FAK, primary screen, biochemical, 635/667 nm fluorescence, BSA, DTT (AID 1130); settings: PTK2 binding, 635 nm fluorescence, higher = more signal;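 further: composite of spot emission at 667 nm and signal to noise over triplicate slides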
Sequence (Q05397 whole entry, looked up): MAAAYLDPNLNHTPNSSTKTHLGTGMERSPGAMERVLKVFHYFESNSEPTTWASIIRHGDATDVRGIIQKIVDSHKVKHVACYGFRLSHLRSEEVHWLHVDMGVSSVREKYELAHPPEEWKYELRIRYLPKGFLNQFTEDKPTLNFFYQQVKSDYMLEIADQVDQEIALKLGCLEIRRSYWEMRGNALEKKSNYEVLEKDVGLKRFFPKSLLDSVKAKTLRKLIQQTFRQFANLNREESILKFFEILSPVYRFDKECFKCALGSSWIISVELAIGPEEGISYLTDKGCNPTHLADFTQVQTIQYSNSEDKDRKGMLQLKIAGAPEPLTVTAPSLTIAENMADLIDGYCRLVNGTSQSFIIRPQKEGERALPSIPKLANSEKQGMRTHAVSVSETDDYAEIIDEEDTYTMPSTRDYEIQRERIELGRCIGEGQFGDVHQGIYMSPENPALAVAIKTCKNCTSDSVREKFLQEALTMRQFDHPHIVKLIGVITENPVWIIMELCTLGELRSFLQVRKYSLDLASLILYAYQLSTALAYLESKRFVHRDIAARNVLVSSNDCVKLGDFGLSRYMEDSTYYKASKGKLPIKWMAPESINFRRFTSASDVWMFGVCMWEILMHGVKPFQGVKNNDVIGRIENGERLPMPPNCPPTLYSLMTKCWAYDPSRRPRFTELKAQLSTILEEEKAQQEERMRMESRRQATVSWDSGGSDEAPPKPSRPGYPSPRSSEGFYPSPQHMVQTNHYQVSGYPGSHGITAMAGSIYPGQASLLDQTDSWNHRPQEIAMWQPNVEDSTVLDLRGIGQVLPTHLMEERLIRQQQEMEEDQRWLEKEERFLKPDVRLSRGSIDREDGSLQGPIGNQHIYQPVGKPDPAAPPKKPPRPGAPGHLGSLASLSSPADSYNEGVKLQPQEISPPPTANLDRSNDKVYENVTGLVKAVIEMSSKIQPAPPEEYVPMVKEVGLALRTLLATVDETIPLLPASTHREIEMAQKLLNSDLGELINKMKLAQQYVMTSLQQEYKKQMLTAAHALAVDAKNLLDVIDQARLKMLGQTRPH
One number for each entry.

Worked cases, composite z-score given:
O=C1[C@H]2[C@H]3[C@H](O)[C@H](O)CC(=NOC[C@@H](O)COCc4ccco4)[C@@H]3CC[C@H]2C(=O)N1c1ccc(F)cc1F	-0.358
CN1C(=O)[C@@]2(CCC(=O)OC(C)(C)C)N=C(c3ccc(OCCCO)cc3)O[C@H]2c2ccccc21	0.102
CC1(C)OCC(C(O)C2=CCCCC2=O)CO1 (stereo not given)	0.0102
O=C1CCCC2OC12C(O)CCc1ccccc1 (stereo not given)	0.0538

As a next step, examine the compound that follows.
Hey, Focal adhesion kinase 1 (Homo sapiens) (UniProt Q05397) data for CN1C(=O)C2C=CC(C(O)c3ccc(I)cc3)N(NC(=O)OC(C)(C)C)C2C1=O (stereo not given) : composite z-score came out at 0.739
